Every entry's value here was drawn from the nanobody polyreactivity screen of Harvey et al. (2022).

test: yeast display, Sf9 membrane polyspecificity reagent, FACS + sequencing; frameworks hold sequencing errors
observable: polyreactivity (PSR sort gate)

sequence_record=QVQLVESGGGLVQAGGSLRLSCAASGITFGWYAMGWYRPAPGKERELVAAISWSGGTTYYADSVKGRFTISRDNAKNTVYLQMNSLKPEDTAVYYCAATWYYPTVYAGNYWGQGTQVTVSS recorded_measurement="high polyreactivity"
sequence_record=QVQLVESGGGLVQAGGSLRLSCAASGRIFYKYAMGWYRQAPGKERELVAAISYSGGSTYYADSMKGRFTLSRDNAKNTVYLQMNSLTPEDTAVYYCATRRREAGIEYDYWGQGTQVTVSS recorded_measurement="high polyreactivity"

---

test: yeast display, Sf9 membrane polyspecificity reagent, FACS + sequencing; frameworks hold sequencing errors
observable: polyreactivity (PSR sort gate)

sequence_record=QVQLVESGGGLVQAGGSLRLSCAASGSTFRRNVMGWYRQAPGKEREFVAAISYRTGSTYYADSVKGRFTISRDNAKNTVYLQMNSLKPEDTAVYYCAASSQWVGYYYWGQGTQVTVSS recorded_measurement="high polyreactivity"
sequence_record=QVQLVESGGGLVQAGGSLRLSCAASGRIFQRYAMGWYRQAPGKERELVAVITKRGGNTYYADSVKGRFTISRDNAKNTVYLQMNSLKPEDTAVYYCANRSGRSTGDYWGQGTQVTVSS recorded_measurement="high polyreactivity"

---

assay: yeast display, Sf9 membrane polyspecificity reagent, FACS + sequencing; frameworks hold sequencing errors
observable: polyreactivity (PSR sort gate)

Example cases with answers are listed next.
sequence_record=QVQLVESGGGLVQAGGSLRLSCAASGRTFRYYSMGWYRQAPGKERELVATITGSGGSTYYADSVKGRFTISRDNAKNTVYLQMNSLKPEDTAVYYCNARKVRYPYRWYDYWGQGTQVTVSS recorded_measurement="high polyreactivity"
sequence_record=QVQLLESGGGLVQAGGSLRLSCAASGSIFTVYAMGWYRQAPGKERELVAAITGSGGRTYYADSVKGRFTISRDNAKNTVYLQRNSLKPEDTAVYYCAATTRPGYRYEGDYWGQGTQVTVSS recorded_measurement="low polyreactivity"
sequence_record=QVQLVESGGGLVQAGGSLRLSCAASGGTFVYNAMGWYRQAPGKERELVAAIRVRGDTTYYADSVKGRFTISRDNAKNTVYLQMNSLKPEDTAVYYCAAYPDYSYYYWGQGTQVTVSS recorded_measurement="high polyreactivity"
sequence_record=QVQLVESGGGLVQAGGSLSLSCAASGRTFNNNAMGCYIPAPGKERELVAAITSGASTNYADSVKGRFTISRDNAKNTVYLQMNSLKPEDTAVYYCAKATYPHEYDYWGQGTQVTVSS recorded_measurement="low polyreactivity"
sequence_record=QVQLEESGGGLVQAGGSLRLSCAASGSIFDVIAMGWYSQAPGNVRVLVAAISDSGGSTYYADSVKGRFTNSRDNAKKTVYLQMNSLKPEDTAVYYCNADWSWYNYYDFDYWGLGTQVTVSS recorded_measurement="low polyreactivity"
sequence_record=QVQLVESGGGLVQAGGSLRLSCAASGITFTYYAMGWYRQAPGKERELVAAINWNGGSTYYADSVKGRFTISRDNAKNTVYLQMNSLKPEDTAVYYCAAEFYIYGFVKFDYWGQGTQVTVSS recorded_measurement="high polyreactivity"
sequence_record=QVQLVESGGGLVQAGGSLRLSCAASGFTFIKYAMGWYRQAPGKEREFVATISWNGGNTYYADSVKGRFTISRDNAKNTVYLQMNSLKPEDTAVYYCAARVKYRTRGGTVVSYDYWGQGTQVTVSS recorded_measurement="high polyreactivity"
sequence_record=QVQLVESGGGLVQAGGSLRLSCAASGLTFEKYAMGWYRQAPGKEREMVAAISQDGGSTYYADSVKGRFTISRDNAKNTVYLQMNSLKPEDTAVYYCAAEDPDSWLPWDLFYYWGQGTQVTVSS recorded_measurement="low polyreactivity"

List reported polyreactivity (PSR sort gate) for each of these sequences:
1. QVQLVESGAGLVQAGGSLRLSCAASGSIFQPDAMGWYRQAPGKERELVAAITNCGSTYYADSVKGRFTISRDNAKNTVYLQMNSLNPEVTAVYYCAADVQSSHEYDYWGQGTQVTVSS
2. QVQLVESGGGLVQAGGSLRLSCAASGRISGWYAMGWYRQAPGKERELVASISSSGGSTYYADSVEGRFTISRDNAKNTVYFQMNSLKPEDTAVYYCAVRRYNWSFYRGYDYWGQGTQVTVSS
3. QVQLVESGGGLVQAGGSLRLSCAASGRTFYRYVMGWYRQAPGKERELVAAIRSSGTSTYYADSVKGRFTISRDNAKNTVYLQMNSLKPEDTAVYYCARDSYRGYVYSLDYWGQGTQVTVSS
4. QVQLVESGGGLVQEGGSLRLSCAASGFIFRSYAMGWYRKAPGKERELVAAISSSGGSTYYADSVKGRFTISRDNAKNTVYLPMNSLKPEDTAVYYCAKGYQRGRDYWGQGTQVTVSS

Ans:
1. low polyreactivity
2. high polyreactivity
3. high polyreactivity
4. high polyreactivity
